Reference for the values: PubChem BioAssay

test: inhibition of 3D7 malaria parasite growth – strain 3D7 (AID 2306);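 further: 0% = DMSO wells and 100% = chloroquine plus artemisinin control wells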
condition-details: P. falciparum 3D7 erythrocytic growth, LDH absorbance, 72 h; at 2 µM; hits give high values
measure: growth inhibition (%)
Numbers only, in %.

Past entries and their recorded results:
# molecule, display-unit, numeric-readout
data = [
    ("CC(C)Sc1nncc(-c2cnnc(SC(C)C)n2)n1", "%", 101),
    ("Cc1cnc(C(=O)Nc2cccc(-c3csc(-c4nc5ccccc5[nH]4)c3)c2)cn1", "%", 98),
    ("Oc1cccc(Nc2nc(NCC3CCCO3)c3ccccc3n2)c1 (stereo not given)", "%", 100),
    ("O=S(=O)(NCCN1CCCC1)c1ccc(-c2ccccc2CNC2Cc3ccccc3C2)cc1", "%", 95),
]

Please examine the following record next.
Field growth inhibition (entry COc1ccc(C2(CNCC(O)c3cccc([N+](=O)[O-])c3)CCCC2)cc1OC (stereo not given) ) reads 93

----------
test: inhibition of 3D7 malaria parasite growth – strain 3D7 (AID 2306);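 further: 0% = DMSO wells and 100% = chloroquine plus artemisinin control wells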
condition-details: P. falciparum 3D7 erythrocytic growth, LDH absorbance, 72 h; at 2 µM; hits give high values
Calls of active or inactive are those of the source. The rule behind the calls is not given here.
measure: growth inhibition

# structure-notation, growth inhibition
data = [
    ("Cc1ccc(NC(=O)NC2CCN(CCCCCNC(=O)/C=C/c3ccc(Cl)c(Cl)c3)CC2)cc1", "102% (active)"),
    ("CCCCCCc1c(C)[nH]c2cc(OC)ccc2c1=O", "97% (active)"),
    ("Cc1cc(OCC(=O)Nc2ccc(-c3nc4ccccc4[nH]3)cc2)cc(C)c1Cl", "99% (active)"),
    ("CC(C)CNCc1ccc(-c2cccc(-c3nc4ccccc4[nH]3)c2)cc1", "99% (active)"),
    ("CC(C)c1ccc(-c2noc(SCC(=O)N(C)c3ccc(F)cc3)n2)cc1", "84% (active)"),
]

Please examine the following record next.
Field growth inhibition (entry `O=C(Nc1ccc(OC2CCN(Cc3ccccc3)CC2)c(Cl)c1)c1ccco1` ) reads 96% (active)

----------
subject-of-test: L-lactate dehydrogenase (Plasmodium falciparum (isolate CDC / Honduras)) (UniProt Q27743)
Sequence (Q27743 whole entry, looked up): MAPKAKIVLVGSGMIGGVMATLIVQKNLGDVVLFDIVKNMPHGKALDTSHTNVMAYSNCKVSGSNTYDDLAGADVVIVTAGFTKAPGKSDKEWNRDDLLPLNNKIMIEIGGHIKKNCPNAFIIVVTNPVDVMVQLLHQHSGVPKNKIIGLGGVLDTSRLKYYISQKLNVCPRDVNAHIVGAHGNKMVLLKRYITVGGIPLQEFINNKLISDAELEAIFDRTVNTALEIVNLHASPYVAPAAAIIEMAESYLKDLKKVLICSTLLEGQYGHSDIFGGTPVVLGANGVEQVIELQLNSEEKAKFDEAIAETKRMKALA
test: PfLDH activity inhibition – cell lysate, 3D7 strain, counter-screen for P. falciparum growth inhibition project (AID 2304);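 further: 0% = vehicle and 100% = reference inhibitor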
condition-details: P. falciparum 3D7 crude extract, LDH APAD/NBT absorbance; at 2 µM; hits give high values
Please go through the items and note down their inhibition.
Numbers only, in %.

Past entries and their recorded results:
# compound, numeric-readout
measured = [
    ("O=C(NCC1CN(Cc2ccc(N3CCCC3)o2)CCCO1)c1ccc2c(c1)OCO2 (stereo not given)", -1),
    ("CC(C)CCN1CCC(Oc2ccc(NC(=O)c3ccco3)cc2Cl)CC1", 3),
    ("O=C(Nc1cccc(CN2CCN(C(=O)c3cccc(Cl)c3)CC2)c1)c1cccs1", -6),
    ("Cc1cc(OCCCN=C(N)c2ccc3ccccc3c2)c(C(C)C)cc1Cl", 2),
    ("Cc1ccc(CNC(=O)[C@H](Cc2ccccc2)Nc2cc(C)nc(NCC3CCCCC3)n2)cc1", 0),
]

Give inhibition for each listed item.
1. COc1ccc2nccc([C@@H](O)CN3CCC(NC(=O)c4ccc(Cl)c(OC)c4)CC3)c2c1
2. COc1ccc(CCNc2nc(NCc3ccccc3)c3cc(OC)c(OC)cc3n2)cc1OC

Reply text:
1. 5
2. 0

Give inhibition for each listed item.
1. O=C(NCc1cccc(C(F)(F)F)c1)C1CCCN(C(=O)c2ccc(O)c(-c3ccc(Cl)c(Cl)c3)c2)C1 (stereo not given)
2. O=C(/C=C/c1ccc(Cl)c(Cl)c1)NCCCCCN1CCC(CCNC(=O)Cc2ccc(Cl)cc2)CC1

Reply text:
1. 6
2. -8

Give inhibition for each listed item.
1. Cc1cc(C(=O)Nc2ccc(OCc3ccccc3)cc2)on1
2. CNC(=O)CC(=O)NCCc1ccc(Cl)cc1
3. COc1ccc(-c2ccc(NC(=O)c3cccc(C#N)c3)cc2)cc1CN1CCC(O)CC1
4. Cc1cc(CNC(c2ccccc2)C2CCC2)cc(C)c1O (stereo not given)
5. COc1ccc2nccc([C@@H](O)CN3CCC(NC(=O)COc4nc(SCc5ccc(F)cc5)nc5c4CCC5)CC3)c2c1
6. CC(C)(C)OC(=O)NCc1ccc(Nc2nnc(-c3ccc(OCC(=O)NC[C@@H]4CC[C@H]5C[C@@H]4C5(C)C)c([N+](=O)[O-])c3)o2)cc1

Reply text:
1: 1; 2: 6; 3: 7; 4: -2; 5: -2; 6: -3

Give inhibition for each listed item.
1. Cc1cc(N2CCC(N(C)C)C2)nc(Nc2ccc(Cl)cc2)n1 (stereo not given)
2. CC1N=C(N)N=C(N)N1OCc1ccccc1 (stereo not given)
3. N#Cc1ccc(C(=O)NC2CCN(CCCCCNC(=O)/C=C/c3ccc(Cl)c(Cl)c3)CC2)cc1
4. CC(C)CCN1C(=O)C(NC(=O)Oc2ccccc2)C(=O)N(CC23CC4CC(CC(C4)C2)C3)c2ccccc21 (stereo not given)
5. CCc1c(CCNCCCCCCNCCc2ccc([N+](=O)[O-])cc2)ccc(OC)c1OC

Reply text:
1: 2; 2: 7; 3: -4; 4: 0; 5: 6

----------
Please go through the items and note down their inhibition.
test: HepG2 cytotoxicity, primary screen, cytotoxicity control for P. falciparum antimalarial project, cell-based, ATP luminescence (AID 2303);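 further: 0% = DMSO wells and 100% = digitonin-killed cells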
condition-details: HepG2 viability, 24-48 h, at 10 µM, hits give high values
Give bare numbers, in %.

Past entries and their recorded results:
# compound, display-unit, inhibition
data = [
    ("CCOCCCNc1nc2cc(OC)c(OC)cc2c2nc(-c3ccccc3)nn12", "%", 10),
    ("CCC(Cc1cnc2nc(N)nc(N)c2n1)c1ccc(C(=O)O)cc1 (stereo not given)", "%", 15),
    ("COCCNCc1ncsc1-c1ccc2c(Nc3ccc(Oc4ccccc4)cc3)ccnc2c1", "%", 34),
]

Give inhibition for each listed item.
1. COc1cc(NC(=O)CCCCCCCCN2CCN(C)CC2)c2ncccc2c1
2. CC(C)c1ccc(NC(=O)c2cccc(CN3CCCN(Cc4cccc(C#N)c4)CC3)c2)cc1

Reply text:
1: 8; 2: 48

----------
Please go through the items and note down their growth inhibition.
test: inhibition of 3D7 malaria parasite growth – strain 3D7 (AID 2306);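 further: 0% = DMSO wells and 100% = chloroquine plus artemisinin control wells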
condition-details: P. falciparum 3D7 erythrocytic growth, LDH absorbance, 72 h; at 2 µM; hits give high values
Activity calls are given as the source filed them. How the calls were made is not given here.

Past entries and their recorded results:
# molecule, result
measured = [
    ("COc1ccccc1C(=O)N1CCN(Cc2cccs2)CC1", "96% (active)"),
    ("COc1ccc(NC(=O)Nc2ccc(-c3cccc(-c4nc5c(C)cccc5[nH]4)c3)cc2)cc1", "101% (active)"),
    ("CC(=O)Nc1ccc(C(=O)NC2CCN(c3ccnc4cc(Cl)ccc34)CC2)cc1", "101% (active)"),
    ("CC1=C(C(=O)Nc2cc3cn[nH]c3cc2F)C(c2cccc(NS(C)(=O)=O)c2)CC(=O)N1 (centres undefined)", "96% (active)"),
    ("O=C(NCCSCc1c(F)cccc1Cl)c1cnc2c(c1)nc(-c1cnc(-c3ccccc3)[nH]1)n2CCc1cnc[nH]1", "93% (active)"),
    ("C=CCOc1ccc(C(=O)Nc2nonc2-c2ccc(OC)c(OC)c2)cc1", "100% (active)"),
    ("CSC1=NC(=Nc2c(C)cccc2C)C2(CCC(C(C)(C)C)CC2)N1c1ccc(O)cc1 (centres undefined)", "97% (active)"),
    ("c1ccc2[nH]c(-c3ccc(-c4ccc(CN5CCC(N6CCCCC6)CC5)cc4)s3)nc2c1", "99% (active)"),
]

Please examine the following record next.
Field growth inhibition (entry `O=C(/C=C/c1ccc(Cl)c(Cl)c1)N1CCC(NCc2ccc3[nH]ccc3c2)CC1` ) reads 97% (active)

----------
test: antimalarial activity against Dd2 strain (AID 2302);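 further: 0% = DMSO untreated growth and 100% = chloroquine plus artemisinin killed control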
condition-details: P. falciparum Dd2 in RBCs, LDH growth readout, 72 h; at 2 µM; hits give high values
Outcome label depends on growth inhibition relative to 80%: at/above gives 1, below gives -1.

Below are worked cases with known answers.
# structure-notation, category
measured = [
    ("Cc1ccc2nc(-c3ccccc3Nc3ccnc4cc(-c5nccs5)ccc34)[nH]c2c1", 1),
    ("COc1cccc(C(=O)Nc2nc3c(s2)CCN(Cc2ccccc2N2CCNCC2)CC3)c1", -1),
    ("COc1cccc(C=NNc2cc(C)nc3c(OC)cccc23)c1", -1),
    ("COc1ccc(-c2onc(C(F)(F)F)c2-c2ccc(Br)cc2)c(O)c1", -1),
    ("O=C(c1c(-c2[nH]c3ccccc3c2C(=O)C(F)(F)F)[nH]c2ccccc12)C(F)(F)F", 1),
    ("Oc1ccc(CCCNc2nc(NCc3cccc4ccccc34)nc(N3CCNCC3)n2)cc1", -1),
]

Inquiry: Check this compound for growth inhibition at or above 80%: `COc1ccc2nccc(N3CCC(CCNCc4ccc5c(n4)NC(=O)CS5)CC3)c2n1`
Reply text: -1

Inquiry: Check this compound for growth inhibition at or above 80%: `FC(F)(F)c1ccc(-c2ccc(CNC3CCN(CCN4CCOCC4)CC3)cc2)cc1`
Reply text: -1
